# MEASURED TARGET: SNAP-D2L receptor (Homo sapiens, UniProt P14416)
# Construct: expressed in transfected cells
# ASSAY METHOD TEXT: Single-molecule TIRF-M of SNAP-D2L receptors in CHO cells with ligands (dimerization, mobility, colocalization)
# Type: cell-based
# ASSAY CONTEXT: SNAP-D2L in CHO cells, 100 x Ki value labeling concentration, mean ± s.d.
MEASURED METRIC: Density (spots µm-2)
Give bare numbers, in spots µm-2.

Please give Density (spots µm-2), item by item, for the list that follows.
1. CCCCn1cc(CCCOc2ccc(CN3CCN(c4ccccc4OC)CC3)cc2OCCCCN)nn1
2. CCCCn1cc(CCCOc2ccc(CN3CCN(c4ccccc4OC)CC3)cc2OC)nn1
3. COc1cc(CN2CCN(c3ccccc3OC)CC2)ccc1OCCCc1cn(CCCCCCCCn2cc(CCCOc3ccc(CN4CCN(c5ccccc5OC)CC4)cc3OC)nn2)nn1

1. 0.69
2. 0.69
3. 0.65

Need Density (spots µm-2) of "COc1ccccc1N1CCN(Cc2ccc(OCCCc3cn(CCCCCCCCn4cc(CCCOc5ccc(CN6CCN(c7ccccc7OC)CC6)cc5OCCCCN)nn4)nn3)c(OCCCCN)c2)CC1" , thanks. 0.67

----------
# MEASURED TARGET: human D3 (Homo sapiens, UniProt P35462)
# Sequence (P35462 whole entry): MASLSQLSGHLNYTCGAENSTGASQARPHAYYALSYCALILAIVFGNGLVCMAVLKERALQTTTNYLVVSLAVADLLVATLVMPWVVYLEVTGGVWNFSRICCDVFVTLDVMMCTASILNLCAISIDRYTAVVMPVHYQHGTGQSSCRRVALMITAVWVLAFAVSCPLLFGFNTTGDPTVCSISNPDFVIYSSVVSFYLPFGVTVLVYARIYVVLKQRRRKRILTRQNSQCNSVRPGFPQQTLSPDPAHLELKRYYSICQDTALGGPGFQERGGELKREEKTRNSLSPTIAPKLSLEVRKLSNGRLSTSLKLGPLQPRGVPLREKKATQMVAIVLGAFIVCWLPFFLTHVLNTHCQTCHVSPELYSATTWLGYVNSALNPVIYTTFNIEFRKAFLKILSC
MEASURED METRIC: Ki (nM)
Give bare numbers, in nM.

Find the recorded Ki belonging to "COc1cc(CN2CCN(C)CC2)ccc1OCCCc1cn(CCCCCCCCn2cc(CCCOc3ccc(CN4CCN(c5ccccc5OC)CC4)cc3OC)nn2)nn1" and report it. 220

----------
# MEASURED TARGET: SNAP-D2L receptor (Homo sapiens)
# Construct: expressed in transfected cells
# ASSAY METHOD TEXT: Single-molecule TIRF-M of SNAP-D2L receptors in CHO cells with ligands (dimerization, mobility, colocalization)
# Type: cell-based
# ASSAY CONTEXT: SNAP-D2L in CHO cells, 10 x Ki value labeling concentration, 24°C, mean ± s.d.
Would you mind telling me the reported Average Dlat 24°C (average lateral diffusion coefficient) of each entry?
Provide a numeric answer, followed by its unit.

INSERT INTO results (chemical_smiles, result) VALUES
  ('COc1cc(CN2CCN(c3ccccc3OC)CC2)ccc1OCCCc1cn(CCCCCCCCn2cc(CCCOc3ccc(CN4CCN(c5ccccc5OC)CC4)cc3OC)nn2)nn1', '0.074 ± 0.004 µm² s-1'),
  ('CCCCn1cc(CCCOc2ccc(CN3CCN(c4ccccc4OC)CC3)cc2OC)nn1', '0.087 ± 0.003 µm² s-1'),
  ('COc1ccccc1N1CCN(Cc2ccc(OCCCc3cn(CCCCCCCCn4cc(CCCOc5ccc(CN6CCN(c7ccccc7OC)CC6)cc5OCCCCN)nn4)nn3)c(OCCCCN)c2)CC1', '0.075 ± 0.004 µm² s-1'),
  ('COc1cc(CN2CCN(C)CC2)ccc1OCCCc1cn(CCCCCCCCn2cc(CCCOc3ccc(CN4CCN(c5ccccc5OC)CC4)cc3OC)nn2)nn1', '0.083 ± 0.004 µm² s-1'),
  ('COc1cc(CN2CCN(c3ccccc3OC)CC2)ccc1OCCCc1cn(CCCCCCCCn2cc(CCCOc3ccc(CN4CCN(C5CCCCC5)CC4)cc3OC)nn2)nn1', '0.083 ± 0.005 µm² s-1');

Okay, now this molecule:
Look at this molecule and give its reported Average Dlat 24°C (average lateral diffusion coefficient). "CCCCn1cc(CCCOc2ccc(CN3CCN(c4ccccc4OC)CC3)cc2OCCCCN)nn1" 0.085± 0.004 µm² s-1

----------
# MEASURED TARGET: SNAP-D2L receptor (Homo sapiens)
# Construct: expressed in transfected cells
# ASSAY METHOD TEXT: Single-molecule TIRF-M of SNAP-D2L receptors in CHO cells with ligands (dimerization, mobility, colocalization)
# Type: cell-based
# ASSAY CONTEXT: SNAP-D2L in CHO cells, 100 x Ki value labeling concentration, 24°C, mean ± s.d.
Please respond with reported Average Dlat 24°C (average lateral diffusion coefficient) for every item in the list.
Numbers only, in µm² s-1.

INSERT INTO results (molecule, unit, measured_number) VALUES
  ('CCCCn1cc(CCCOc2ccc(CN3CCN(c4ccccc4OC)CC3)cc2OCCCCN)nn1 [1b]', 'µm² s-1', 0.081);

For each of the molecules below, note its Average Dlat 24°C (average lateral diffusion coefficient).
1. COc1cc(CN2CCN(c3ccccc3OC)CC2)ccc1OCCCc1cn(CCCCCCCCn2cc(CCCOc3ccc(CN4CCN(c5ccccc5OC)CC4)cc3OC)nn2)nn1 [2a]
2. COc1ccccc1N1CCN(Cc2ccc(OCCCc3cn(CCCCCCCCn4cc(CCCOc5ccc(CN6CCN(c7ccccc7OC)CC6)cc5OCCCCN)nn4)nn3)c(OCCCCN)c2)CC1 [2b]
3. CCCCn1cc(CCCOc2ccc(CN3CCN(c4ccccc4OC)CC3)cc2OC)nn1 [1a]

[0.075, 0.071, 0.083]

----------
Here we list compounds with their recorded Ki when tested on human D2L (Homo sapiens, UniProt P14416).
Numbers only, in nM.

INSERT INTO assay_data (chemical_smiles, measured_metric, unit, measured_number) VALUES
  ('COc1ccccc1N1CCN(Cc2ccc(OCCCc3cn(CCCCCCCCn4cc(CCCOc5ccc(CN6CCN(c7ccccc7OC)CC6)cc5OCCCCN)nn4)nn3)c(OCCCCN)c2)CC1', 'Ki', 'nM', 3);

Continue with the next compound.
Which Ki value belongs to "COc1cc(CN2CCN(C)CC2)ccc1OCCCc1cn(CCCCCCCCn2cc(CCCOc3ccc(CN4CCN(c5ccccc5OC)CC4)cc3OC)nn2)nn1" ? 9.8

----------
Can you tell me Density (spots µm-2) for the items I'm about to list?
# MEASURED TARGET: SNAP-D2L receptor (Homo sapiens, UniProt P14416)
# Construct: expressed in transfected cells
# ASSAY METHOD TEXT: Single-molecule TIRF-M of SNAP-D2L receptors in CHO cells with ligands (dimerization, mobility, colocalization)
# Format: cell-based
# ASSAY CONTEXT: SNAP-D2L in CHO cells, 10 x Ki value labeling concentration, mean ± s.d.
Give bare numbers, in spots µm-2.

INSERT INTO assay_data (chemical_smiles, measured_target, measured_metric, measured_number) VALUES
  ('COc1cc(CN2CCN(c3ccccc3OC)CC2)ccc1OCCCc1cn(CCCCCCCCn2cc(CCCOc3ccc(CN4CCN(c5ccccc5OC)CC4)cc3OC)nn2)nn1', 'SNAP-D2L receptor (Homo sapiens, UniProt P14416)', 'Density (spots µm-2)', 0.65),
  ('COc1ccccc1N1CCN(Cc2ccc(OCCCc3cn(CCCCCCCCn4cc(CCCOc5ccc(CN6CCN(c7ccccc7OC)CC6)cc5OCCCCN)nn4)nn3)c(OCCCCN)c2)CC1', 'SNAP-D2L receptor (Homo sapiens, UniProt P14416)', 'Density (spots µm-2)', 0.64),
  ('CCCCn1cc(CCCOc2ccc(CN3CCN(c4ccccc4OC)CC3)cc2OC)nn1', 'SNAP-D2L receptor (Homo sapiens, UniProt P14416)', 'Density (spots µm-2)', 0.68),
  ('COc1cc(CN2CCN(c3ccccc3OC)CC2)ccc1OCCCc1cn(CCCCCCCCn2cc(CCCOc3ccc(CN4CCN(C5CCCCC5)CC4)cc3OC)nn2)nn1', 'SNAP-D2L receptor (Homo sapiens, UniProt P14416)', 'Density (spots µm-2)', 0.68),
  ('COc1cc(CN2CCN(C)CC2)ccc1OCCCc1cn(CCCCCCCCn2cc(CCCOc3ccc(CN4CCN(c5ccccc5OC)CC4)cc3OC)nn2)nn1', 'SNAP-D2L receptor (Homo sapiens, UniProt P14416)', 'Density (spots µm-2)', 0.67);

Okay, next one:
Item under review: "CCCCn1cc(CCCOc2ccc(CN3CCN(c4ccccc4OC)CC3)cc2OCCCCN)nn1" . Reported Density (spots µm-2)? 0.66

----------
# MEASURED TARGET: SNAP-D2L receptors (Homo sapiens, UniProt P14416+P16455, A127T/A154D/C150Q/C62A/E30R/G131K/G132T/G153L/K125A/K32I/L33F/M134L/N157G/Q115S/Q116H/R128A/R135S/S151G/S152D/S159E)
# Sequence (P16455+P14416 fused with the stated changes): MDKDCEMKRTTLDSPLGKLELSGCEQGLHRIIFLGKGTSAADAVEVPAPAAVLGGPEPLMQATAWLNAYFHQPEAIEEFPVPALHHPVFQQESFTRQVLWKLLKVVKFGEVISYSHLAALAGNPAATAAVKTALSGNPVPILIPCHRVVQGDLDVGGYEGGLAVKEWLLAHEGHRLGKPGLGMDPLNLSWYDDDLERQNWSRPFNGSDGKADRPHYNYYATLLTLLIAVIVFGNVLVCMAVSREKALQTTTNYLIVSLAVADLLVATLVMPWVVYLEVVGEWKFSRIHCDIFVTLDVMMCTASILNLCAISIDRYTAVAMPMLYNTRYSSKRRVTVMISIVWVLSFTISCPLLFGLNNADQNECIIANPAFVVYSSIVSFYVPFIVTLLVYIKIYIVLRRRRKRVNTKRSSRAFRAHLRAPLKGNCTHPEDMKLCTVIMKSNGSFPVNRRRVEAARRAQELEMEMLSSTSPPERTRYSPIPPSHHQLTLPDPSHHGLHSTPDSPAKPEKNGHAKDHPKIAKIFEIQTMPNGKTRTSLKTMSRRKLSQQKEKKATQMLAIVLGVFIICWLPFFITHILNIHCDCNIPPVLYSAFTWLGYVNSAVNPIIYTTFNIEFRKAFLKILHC
# ASSAY METHOD TEXT: [3H]spiperone competition/saturation binding, membranes of CHO cells expressing SNAP-D2L
MEASURED METRIC: pKi
Numbers only, as −log10 of the molar value.

Use these answered entries as a reference point.
INSERT INTO measurements (chemical_smiles, measured_number) VALUES
  ('CCCCn1cc(CCCOc2ccc(CN3CCN(c4ccccc4OC)CC3)cc2OCCCCN)nn1', 8.32),
  ('COc1cc(CN2CCN(c3ccccc3OC)CC2)ccc1OCCCc1cn(CCCCCCCCn2cc(CCCOc3ccc(CN4CCN(c5ccccc5OC)CC4)cc3OC)nn2)nn1', 7.70),
  ('COc1ccccc1N1CCN(Cc2ccc(OCCCc3cn(CCCCCCCCn4cc(CCCOc5ccc(CN6CCN(c7ccccc7OC)CC6)cc5OCCCCN)nn4)nn3)c(OCCCCN)c2)CC1', 8.62);

Turning now to a further molecule:
Which pKi is reported for this molecule? "CCCCn1cc(CCCOc2ccc(CN3CCN(c4ccccc4OC)CC3)cc2OC)nn1" 6.55
